Tested on: Wolbachia pipientis
Assay: Anti-Wolbachia Cell-Based Screen
Format: functional
Set-up: scale not given: in the data most compounds retested in dose-response had high values
Settings: 5 µM
Among all 48,000 compounds or so, about 13,000 (27%) showed an effect of 50% or more. This is one part of the list.
Could you please report measured Percent Effect for the items listed next?

COMPOUND	Percent Effect
CC(=O)N1CCC2(CCCN(Cc3ccc(Cl)c(C(F)(F)F)c3)C2)C1 (stereo unspecified)	5.734%
CC(C)SCc1cccc(NC(=O)NCCc2nnc[nH]2)c1	5.819%
CCC1=NN2C(=N)/C(=C\c3cccn3-c3ccc(Br)cc3)C(=O)N=C2S1	83.94%

Hi, could you look up Percent Effect for each item in my list?
1. CCC1CN(Cc2nc(C(C)C)no2)CCC(=O)N1Cc1ccccc1 (stereo unspecified)
2. CCC1=NN2C(=N)/C(=C\c3cccn3-c3cccc(Cl)c3)C(=O)N=C2S1
3. CC(=O)N1CCCC2(CCN(Cc3ccc(Cl)c(F)c3)C2)C1 (stereo unspecified)

Result ::
11.67%
116.1%
9.026%

----------
Record form. Attribute: Percent Effect. Fill in for each entry.
Test system: Wolbachia pipientis
Experiment: Anti-Wolbachia Cell-Based Screen
Format: functional
Set-up: scale not given: in the data most compounds retested in dose-response had high values
Details: 5 µM
Screen size: about 48,000 compounds; about 13,000 (27%) showed an effect of 50% or more. Some of the results follow.
Answers are plain numbers, in %.

Illustrative cases are given below, each with its answer.
COMPOUND	U	EXPERIMENTAL_RESULT
O=C(NC1(c2nccs2)CCCC1)c1cc(C2CC2)on1	%	-6.868
CCCn1[nH]cc/c1=N\C(=O)CN1CCOC(Cn2cc(C)cn2)C1 (stereo unspecified)	%	12.63
COc1ccccc1Oc1ncccc1CNC(=O)C(C)CN (stereo unspecified)	%	1.057

Go through the items and report each one's Percent Effect.
1. CCCc1n[nH]c(C2CN(C(=O)c3ccc[nH]3)CCO2)n1 (stereo unspecified)
2. CCCn1[nH]cc/c1=N\C(=O)CN1CCc2cnc(CC)nc2C1
3. Nc1nc(CCC(=O)N2C[C@@H](CN3CCCC3)C[C@H](CO)C2)n[nH]1

Result ::
[125.3, 1.642, -12.43]

----------
System: Wolbachia pipientis
Experiment: Anti-Wolbachia Cell-Based Screen
Format: functional
Set-up: scale not given: in the data most compounds retested in dose-response had high values
Conditions: 5 µM
Hit rate of the full screen: of about 48,000 compounds, about 13,000 (27%) showed an effect of 50% or more. This is one part of the list.
Please respond with reported Percent Effect for every item in the list.
Answers are plain numbers, in %.

# example entries with known answers
COMPOUND	EXPERIMENTAL_RESULT
Cc1cccc(N2CC[C@@H]3CN(Cc4csc(C)n4)CCO[C@@H]3C2)n1.O=C(O)C(F)(F)F.O=C(O)C(F)(F)F	-4.327
CSc1ccc(OC(C)C(=O)Nc2cc(C)n[nH]2)cc1 (stereo unspecified)	-10.9
CN(Cc1ccc(Cl)s1)C(=O)CN(C)C1CCc2ccccc21 (stereo unspecified)	3.858
CCc1noc(-c2cccc(C(=O)O)c2)n1	137.4
COC(=O)c1cccc(-c2nc(CC3CCN(C)CC3)no2)c1	-1.18
Cc1ccc(-c2csc(-c3cccc(C(=O)O)c3)n2)cc1	-9.33
Cc1cnn(CC2CCCN2C(=O)c2cc3ccccc3[nH]2)c1 (stereo unspecified)	2.697
COc1ccc(OC)c(-c2csc(-c3cccc(C(=O)O)c3)n2)c1	-14.75
CSCC(C)(O)CNC(=O)c1ccc(F)cc1Cl (stereo unspecified)	16.17
Cc1cnn(CC2CCCN2C(=O)Cc2n[nH]c3ccccc23)c1 (stereo unspecified)	2.79

Now turn to the next compound.
Query :: Can you share its Percent Effect? I mean this compound: "O=C1CC2(CCN(C(=O)c3cccc(Cl)c3)CC2)CN1"
Result :: -6.217
